systemTested: hTRPA1 (Homo sapiens, UniProt O75762, K186N)
Construct: expressed in transfected cells; host or cells: HEK293/TREx (Invitrogen), induced with tetracycline
Sequence (O75762 whole entry K186N): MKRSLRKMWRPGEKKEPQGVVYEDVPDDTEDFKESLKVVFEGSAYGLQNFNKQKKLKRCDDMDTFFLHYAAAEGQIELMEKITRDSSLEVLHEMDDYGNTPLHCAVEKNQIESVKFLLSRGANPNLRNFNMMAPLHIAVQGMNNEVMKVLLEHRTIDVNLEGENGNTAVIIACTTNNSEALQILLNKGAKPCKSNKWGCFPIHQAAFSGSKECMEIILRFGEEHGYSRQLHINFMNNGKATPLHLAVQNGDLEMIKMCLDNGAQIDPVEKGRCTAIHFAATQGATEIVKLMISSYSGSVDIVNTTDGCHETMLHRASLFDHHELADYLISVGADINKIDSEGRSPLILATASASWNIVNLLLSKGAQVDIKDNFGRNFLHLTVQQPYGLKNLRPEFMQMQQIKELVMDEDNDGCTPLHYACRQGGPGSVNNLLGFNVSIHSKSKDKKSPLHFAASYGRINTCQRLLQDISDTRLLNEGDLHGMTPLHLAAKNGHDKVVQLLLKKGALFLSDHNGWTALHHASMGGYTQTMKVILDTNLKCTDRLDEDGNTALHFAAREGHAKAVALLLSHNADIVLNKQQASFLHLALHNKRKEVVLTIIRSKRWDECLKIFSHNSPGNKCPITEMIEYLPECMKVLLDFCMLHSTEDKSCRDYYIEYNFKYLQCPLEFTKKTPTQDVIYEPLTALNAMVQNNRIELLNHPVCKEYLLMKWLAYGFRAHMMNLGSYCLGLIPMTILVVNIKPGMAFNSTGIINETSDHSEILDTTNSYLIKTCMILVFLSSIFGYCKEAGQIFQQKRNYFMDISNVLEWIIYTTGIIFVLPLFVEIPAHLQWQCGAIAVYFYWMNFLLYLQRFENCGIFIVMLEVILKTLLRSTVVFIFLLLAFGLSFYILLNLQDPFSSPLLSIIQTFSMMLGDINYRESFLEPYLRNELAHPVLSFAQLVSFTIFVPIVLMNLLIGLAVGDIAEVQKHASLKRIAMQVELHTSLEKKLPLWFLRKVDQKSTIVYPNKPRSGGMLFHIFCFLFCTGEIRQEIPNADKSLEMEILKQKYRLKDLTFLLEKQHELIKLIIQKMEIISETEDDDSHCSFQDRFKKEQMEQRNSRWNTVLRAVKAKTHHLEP
protocolDescription: TRPA1 patch clamp (perforated patch, AITC-activated current)
Assay type: cell-based
experimentalConditions: Table 2; inward current; read-out: hTRPA1 Patch Inwd IC50
pIC50: −log10 of the molar value.
measuredAttribute: pIC50

1) COc1ccc(CCNC(=O)Cn2cnc3c2c(=O)n(C)c(=O)n3C)cc1 | ≥ 5.30
2) COc1cc([N+](=O)[O-])ccc1NC(=O)Cn1cnc2c1c(=O)n(C)c(=O)n2C | ≥ 6.00

Could you please provide reported pIC50 for Cc1ccc(Oc2ccc(NC(=O)Cn3cnc4c3c(=O)n(C)c(=O)n4C)cc2)cc1 ? Thanks! ≥ 6.30

Please give the documented pIC50 of Cn1c(=O)c2c(ncn2CC(=O)Nc2ccc(C(N)=O)cc2)n(C)c1=O < 5.00

----------
protocolDescription: Plasma levels / pharmacokinetics in male Sprague-Dawley rat
Type: in vivo
experimentalConditions: plasma; male Sprague-Dawley rat, intravenous bolus 0.9 mg/kg
measuredAttribute: clearance (mL/min/kg)
Kindly provide the numeric value in mL/min/kg only, without the unit symbol.

Check the records and state clearance for CC(C)c1ccc(NC(=O)Cn2cnc3c2c(=O)n(C)c(=O)n3C)cc1 [Compound 200] 27

----------
systemTested: hTRPA1 (Homo sapiens, UniProt O75762, K186N)
Construct: expressed in transfected cells; host or cells: HEK293/TREx (Invitrogen), induced with tetracycline
protocolDescription: TRPA1 patch clamp (perforated patch, AITC-activated current)
Format: cell-based
experimentalConditions: hTRPA1 Patch Inwd IC50 (nM), Table 2; inward current
measuredAttribute: IC50

// fetch IC50 given entry COc1ccc(CCNC(=O)Cn2cnc3c2c(=O)n(C)c(=O)n3C)cc1OC ≤ 10000 nM

----------
systemTested: hTRPA1 (Homo sapiens, UniProt O75762, K186N)
Construct: expressed in transfected cells; host or cells: HEK293/TREx (Invitrogen), induced with tetracycline
protocolDescription: High throughput Ca2+ fluorescence (Fluo4) assay, AITC stimulation
Type: cell-based
experimentalConditions: Table 2; read-out: hTRPA1 Fluor IC50
measuredAttribute: IC50

Example entries and their recorded answers appear below.
1) Cn1c(=O)c2c(ncn2CC(=O)Nc2nc3ccccc3s2)n(C)c1=O | ≤ 5 µM
2) Cn1c(=O)c2c(ncn2CC(=O)Nc2ccccc2Cl)n(C)c1=O | > 10 µM
3) Cc1cccc(NC(=O)c2ccccc2NC(=O)Cn2cnc3c2c(=O)n(C)c(=O)n3C)c1 | ≥ 20 µM
4) CC(C)N(c1ccccc1)c1ccc(NC(=O)Cn2cnc3c2c(=O)n(C)c(=O)n3C)cc1 | ≤ 10 µM

Supply measured IC50 of Cn1c(=O)c2c(ncn2CC(=O)Nc2nccs2)n(C)c1=O in your reply. > 10 µM

In one line, give reported IC50 of the entry Cc1ccc(Oc2ccc(NC(=O)Cn3cnc4c3c(=O)n(C)c(=O)n4C)cc2)cc1 . ≤ 5 µM

Quick one: give measured IC50 for CCN(C(=O)Cn1cnc2c1c(=O)n(C)c(=O)n2C)c1ccc(F)cc1 ≤ 5 µM

Answer with the recorded IC50 of Cn1c(=O)c2c(ncn2CC(=O)Nc2ccc(C#N)cc2)n(C)c1=O only. ≤ 10 µM

----------
Measured IC50 by item
systemTested: hTRPA1 (Homo sapiens, UniProt O75762, K186N)
Construct: expressed in transfected cells; host or cells: HEK293/TREx (Invitrogen), induced with tetracycline
protocolDescription: High throughput Ca2+ fluorescence (Fluo4) assay, AITC stimulation
Format: cell-based
experimentalConditions: Table 1; read-out: hTRPA1 Fluo4 IC50

Record excerpt, results attached:
1) CCOC(=O)C1=C(C)NC(=S)NC1c1ccccc1OC1CCCC1 (stereo not drawn) | > 10 µM
2) CCN(CC)C(=O)C1=C(C)NC(=S)NC1c1ccc(OC)cc1 (stereo not drawn) | > 10 µM
3) CC1=C(C(=O)OCC(F)(F)F)C(c2ccc(N(C)C)cc2)NC(=O)N1 (stereo not drawn) | > 10 µM
4) CCOC(=O)C1=C(c2ccccc2)NC(=S)NC1c1ccc(OC(C)C)cc1 (stereo not drawn) | ≥ 20 µM
5) CCOc1ccc(C2NC(=S)NC(C)=C2C(=O)OC(C)C)cc1 (stereo not drawn) | > 10 µM

Read the entry COC(=O)C1=C(C)N(C)C(=O)NC1c1cc(Br)ccc1F (stereo not drawn) and write its reported IC50. > 10 µM

----------
# key: entry, value: IC50
systemTested: hTRPA1 (Homo sapiens, UniProt O75762, K186N)
Construct: expressed in transfected cells; host or cells: HEK293/TREx (Invitrogen), induced with tetracycline
protocolDescription: High throughput Ca2+ fluorescence (Fluo4) assay, AITC stimulation
Assay type: cell-based
experimentalConditions: Table 2; read-out: hTRPA1 Fluor IC50

1) CC(C)Cc1nnc(NC(=O)Cn2cnc3c2c(=O)n(C)c(=O)n3C)s1 [Compound 235] | > 10 µM

With hTRPA1 (Homo sapiens, UniProt O75762, K186N) as the test system, provide measured IC50 for this molecule: Cn1c(=O)c2c(ncn2CC(=O)Nc2cccnc2)n(C)c1=O [Compound 367] > 10 µM

----------
systemTested: hTRPA1 (Homo sapiens, UniProt O75762, K186N)
Construct: expressed in transfected cells; host or cells: HEK293/TREx (Invitrogen), induced with tetracycline
protocolDescription: TRPA1 patch clamp (perforated patch, AITC-activated current)
Assay type: cell-based
experimentalConditions: Table 2; inward current; read-out: hTRPA1 Patch Inwd IC50
Some compounds, each annotated with its measured IC50.

1. CC(C)Cc1nnc(NC(=O)Cn2cnc3c2c(=O)n(C)c(=O)n3C)s1 | ≤ 10 µM
2. CN(C)c1ccc(NC(=O)Cn2cnc3c2c(=O)n(C)c(=O)n3C)cc1 | > 10 µM
3. CN(C)c1ccc(CCNC(=O)Cn2cnc3c2c(=O)n(C)c(=O)n3C)cc1 | ≤ 5 µM

Return the recorded IC50 value; entry: Cc1cc(Br)ccc1NC(=O)Cn1cnc2c1c(=O)n(C)c(=O)n2C > 10 µM

Give the measured IC50 for CC(C)c1ccc(NC(=O)Cn2cnc3[nH]c(=O)n(C)c(=O)c32)cc1 ≤ 10 µM

----------
Measured IC50 accompanies every entry in the list below.
systemTested: hTRPA1 (Homo sapiens, UniProt O75762, K186N)
Construct: expressed in transfected cells; host or cells: HEK293/TREx (Invitrogen), induced with tetracycline
protocolDescription: High throughput Ca2+ fluorescence (Fluo4) assay, AITC stimulation
Format: cell-based
experimentalConditions: Table 1; read-out: hTRPA1 Fluo4 IC50

Reference set (3 entries):
1) CCOC(=O)C1=C(c2ccccc2)N(C)C(=O)NC1c1ccccc1F (centres unmarked) | > 10 µM
2) CC1=C(C(=O)OC(C)C(C)C)C(c2ccc(C)cc2)NC(=O)N1 (centres unmarked) | > 10 µM
3) CC1=C(C(=O)OC(C)(C)C)C(c2ccccc2Cl)NC(=O)N1 (centres unmarked) | > 10 µM

Then this molecule:
In one line, give reported IC50 of the entry COC(=O)C1=C(C)N(C)C(=O)NC1c1ccc(O)c(Cl)c1 (centres unmarked) . ≤ 5 µM

----------
systemTested: hTRPA1 (Homo sapiens, UniProt O75762, K186N)
Construct: expressed in transfected cells; host or cells: HEK293/TREx (Invitrogen), induced with tetracycline
protocolDescription: TRPA1 patch clamp (perforated patch, AITC-activated current)
Type: cell-based
experimentalConditions: Table 1; read-out: hTRPA1 Patch IC50
pIC50: −log10 of the molar value.
Reported pIC50 by item:

Example molecules with recorded pIC50:
1) CCCC1=C(C(=O)OCC)C(c2ccccc2Cl)NC(=O)N1 (centres unmarked) | < 5.00
2) COC(=O)C1=C(c2ccccc2)NC(=S)NC1c1ccc(F)cc1 (centres unmarked) | < 5.00
3) CCOC(=O)C1=C(c2ccccc2)NC(=S)NC1c1ccc(OC)cc1 (centres unmarked) | < 5.00

Tell us which pIC50 value is on record for CCOC(=O)C1=C(C)NC(=S)NC1c1ccccc1C (centres unmarked) ≥ 5.30

# return recorded pIC50 for entry CCOC(=O)C1=C(c2ccccc2)NC(=S)NC1c1cc(O)ccc1Br (centres unmarked) [drawing 49] ≥ 6.00

Name the recorded pIC50 of the item CC1=C(C(=O)OC(C)C)C(c2ccc(C)c(Br)c2)NC(=O)N1 (centres unmarked) in your answer. ≥ 6.30

Respond only with pIC50 recorded for CCOC(=O)C1=C(C)NC(=S)NC1c1cccc(OCC)c1 (centres unmarked) ≥ 6.00

Using known records, supply pIC50 for CCOC(=O)C1=C(c2ccccc2)NC(=S)NC1c1cccc(OC)c1 (centres unmarked) ≥ 5.30

----------
protocolDescription: Plasma levels / pharmacokinetics in male Sprague-Dawley rat
Format: in vivo
experimentalConditions: male, Sprague-Dawley, plasma; fasted rat, oral suspension 12 mg/kg
Protocol: Compound 200 plasma levels were determined via HPLC/MS/MS following a single intravenous bolus dose of 0.9 mg/kg, an intraperitoneal dose of 12 mg/kg (suspension), and an oral dose of 12 mg/kg (suspension) in the male Sprague-Dawley rat. […] For intraperitoneal administration, Compound 200 was formulated as a uniform suspension in CMC (carboxymethylcellulose) at a target concentration of 1 mg/mL and administered at a dose volume of 10 mL/kg. […]
measuredAttribute: bioavailability

Identify the reported bioavailability for the following entry. CC(C)c1ccc(NC(=O)Cn2cnc3c2c(=O)n(C)c(=O)n3C)cc1 ~8%
